TESTED TARGET: CYP3A4 (Homo sapiens (Human), UniProt P08684)
Sequence (P08684 whole entry, canonical isoform): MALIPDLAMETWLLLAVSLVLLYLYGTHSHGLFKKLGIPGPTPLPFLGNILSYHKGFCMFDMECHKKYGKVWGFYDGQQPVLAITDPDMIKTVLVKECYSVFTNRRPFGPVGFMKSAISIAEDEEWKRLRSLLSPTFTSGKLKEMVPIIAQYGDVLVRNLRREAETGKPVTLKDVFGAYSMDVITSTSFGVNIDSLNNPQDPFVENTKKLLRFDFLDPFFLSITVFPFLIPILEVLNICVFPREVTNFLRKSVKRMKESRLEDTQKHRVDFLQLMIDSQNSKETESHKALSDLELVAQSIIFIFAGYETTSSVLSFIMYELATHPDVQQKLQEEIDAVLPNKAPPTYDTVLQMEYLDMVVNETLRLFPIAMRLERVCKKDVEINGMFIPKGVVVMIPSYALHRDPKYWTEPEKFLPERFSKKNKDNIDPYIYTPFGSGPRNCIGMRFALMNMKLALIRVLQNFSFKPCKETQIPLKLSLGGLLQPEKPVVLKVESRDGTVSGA
RUN DESCRIPTION: CYP isoforms inhibitory assay in human liver microsome, CYP3A4
EXPERIMENTAL SETUP: read-out: IC50 CYP3A4 (midazolam); human liver microsome, substrate midazolam
pIC50: −log10 of the molar value.
ENDPOINT NAME: pIC50

> print(dat)
                                   compound                             tested.target  measured
1  CN(C(=O)c1ccc2nc(N)c3cncn3c2c1)C1COc2cc(C(F)(F)F)ccc21 (stereo not shown) [Compound 17]  CYP3A4 (Homo sapiens (Human), UniProt P08684)    < 4.52
